# Test system: BT-549 breast
# Experimental Details: NCI tumour cell line growth inhibition, 48 h
Parameter: TGI. Scope: all listed entries.
Quantity Kind: TGI

N#Cc1c(-c2ccccc2)c(C#N)c(=O)n(NS(=O)(=O)c2ccccc2)c1O	> 100 µM
O=C1C(NCCO)=C(N2CC2)C(=O)C(NCCO)=C1N1CC1	> 100 µM
COc1ccc(CSCc2cc(OC)c(OC)c(OC)c2)cc1	> 100 µM

###

# Tested on: M14 melanoma
# Experimental Details: NCI tumour cell line growth inhibition, 48 h
Parameter: TGI. Scope: all listed entries.
Quantity Kind: TGI

CCOC(=O)C1CCC/C1=N\N=C(N)N (stereo not drawn) (tested in a mixture with another compound)	> 100 µM
N#Cc1cnn2c1n[n+]([O-])c1ccc(Cl)cc12	31.8 µM
COc1ccc(C2(CN(C)C)COc3cc(OC)c(OC)cc3C2=O)cc1OC (stereo not drawn)	> 100 µM
